Documented pKd across a set of binders
# Tgt: MSI1 RRM1 (Homo sapiens, UniProt O43347 1-103)
# Sequence (O43347 1-103): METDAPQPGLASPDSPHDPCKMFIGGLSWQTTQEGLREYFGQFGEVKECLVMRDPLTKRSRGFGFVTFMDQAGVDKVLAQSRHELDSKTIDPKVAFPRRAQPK
# Test protocol: SPR; 1:1 with mass transport; SPR, 3'-biotinylated RNA immobilized on dextran sensor chip, protein as analyte; running buffer, salt, pH and temperature not in the material
# Stated conditions: protein: recombinant; tags: N-terminal Strep-tag; label: 3'-biotin; potential hairpin
Scale: negative log10 of molar concentration, which is what pKd denotes.

Using the record for AAGCGUUAGUUAUUUAGUCGCUU (structured_RNA) [RNA-HP2a] , state its measured pKd.
7.66

Next binder, pKd to be filled in.
Identify measured pKd corresponding to CACUCUGUAGUAUGUAGGGUUUAUUU (structured_RNA) [RNA-HP2b]
7.48
